biological target: T1, AAV8; test: SPR, AAV on CM5 chip;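 further: surface plasmon resonance with AAV amine-coupled to the chip as ligand, nanobodies injected as analyte over a concentration series, rate constants and affinity fitted from binding curves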
T1 construct: also called adeno-associated virus serotype 8
Readout Label: koff
State the value, then name its unit.

A4-037 (VHH) VHH: VQLQESGGGLVQPGGSLRLSCAASGSIFSINTMGWYRQAPGKQRELVATVTRGGSTNYAGSVKGRFTISRDNAKNTVYLQMNSLRPEDTAVYYCHLDEVRQSSWTTSNIWGQGTQVTVSS ... 0.0015 s⁻¹
A4-038 (VHH) VHH: VQLQESGGGLVQPGGSLRLSCAASGSHFSINTMGWYRQAPGKQRELVATVTRGGSTNYANSVKGRFTISRDNAKNTVYLQMNSLRPEDTAVYYCHLDEVRQSSWTTSNLWGQGTQVTVSS ... 0.0005 s⁻¹
A4-046 (VHH) VHH: VQLQESGGGLVQPGGSLRLSCAASGSRFSINTMGWYRQAPGKQRELVATVTRGGSTNYADSVKGRFTISRDNAKNTVYLQMNSLRPEDTAVYYCHVDEVRQSSWTTSNLWGQGTQVTVSS ... 0.00455 s⁻¹

Q: Specify measured koff for A4-033 (VHH) VHH: VQLQESGGGLVQPGGSLRLSCVASGSSFSINTMGWYRRAPGKQRELVATVTRDGSTNYANSVKGRFTISRDNAKNTVYLQMNSLRPEDTAVYYCHVDEVRQSSWTTSNLWGQGTQVTVSS .
Ans: 0.00034 s⁻¹
